Reference source: patent US7074796B2

- ASSAY_TARGET: human cloned dopamine D4.2 receptors (Homo sapiens, UniProt P21917, DEL265-296)
- Sequence (P21917 with tags, fused parts or gaps DEL265-296): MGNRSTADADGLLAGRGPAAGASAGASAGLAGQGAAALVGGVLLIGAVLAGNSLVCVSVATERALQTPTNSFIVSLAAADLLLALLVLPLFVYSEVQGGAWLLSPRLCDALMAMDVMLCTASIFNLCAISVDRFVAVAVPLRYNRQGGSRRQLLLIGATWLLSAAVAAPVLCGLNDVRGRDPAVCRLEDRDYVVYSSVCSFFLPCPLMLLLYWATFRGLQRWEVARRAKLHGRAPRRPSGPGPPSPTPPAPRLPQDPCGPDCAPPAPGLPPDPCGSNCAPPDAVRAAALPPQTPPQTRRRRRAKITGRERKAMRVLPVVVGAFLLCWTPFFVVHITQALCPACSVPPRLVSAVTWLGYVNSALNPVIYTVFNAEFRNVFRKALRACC
- PROTOCOL_NOTES: Inhibition of the binding of [3H]YM-09151-2 to human dopamine D4 receptors
- CONDITION: [3H]YM-09151-2 0.06 nM, membranes of CHO-cells; read-out: D4-bind. IC50
- Protocol: Inhibition of the Binding of [^3H]YM-09151-2 to Human Dopamine D4 Receptors By this method the inhibition by drugs of the binding of [^3H]YM-09151–2 (0.06 nM) to membranes of human cloned dopamine D4.2 receptors expressed in CHO-cells is determined in vitro. Method modified from NEN Life Science Products, Inc., technical data certificate PC2533-10/96.
Please go through the items and note down their pIC50.
Reminder that pIC50 means the negative base-10 logarithm of the concentration expressed in mol/L.

Prompt: Lookup: pIC50 / human cloned dopamine D4.2 receptors (Homo sapiens, UniProt P21917, DEL265-296) / O=C(CCCN1CCN(c2cccc(Cl)c2Cl)CC1)N1CCc2ccccc2C1
Response: 8.00

Prompt: Entry Clc1cccc(N2CCN(CCCCCN3CCc4ccccc43)CC2)c1Cl , system human cloned dopamine D4.2 receptors (Homo sapiens, UniProt P21917, DEL265-296): what pIC50 was measured?
Response: 7.74

Prompt: Any idea what pIC50 came out for Clc1cccc(N2CCN(CCCc3c[nH]c4ccccc34)CC2)c1Cl on human cloned dopamine D4.2 receptors (Homo sapiens, UniProt P21917, DEL265-296)?
Response: 8.66

Prompt: # query: pIC50 | item Clc1ccc2c(SCCN3CCN(c4cccc(Cl)c4Cl)CC3)c[nH]c2c1 | system: human cloned dopamine D4.2 receptors (Homo sapiens, UniProt P21917, DEL265-296)
Response: 6.30

Prompt: Entry O=C(CCN1CCN(c2cccc(Cl)c2Cl)CC1)N1CCc2cc(F)ccc21 , system human cloned dopamine D4.2 receptors (Homo sapiens, UniProt P21917, DEL265-296): what pIC50 was measured?
Response: 7.60

Prompt: API: value(readout=pIC50, system=human cloned dopamine D4.2 receptors (Homo sapiens, UniProt P21917, DEL265-296)) for record O=C(CCN1CCN(c2cccc(Cl)c2Cl)CC1)N1CCc2ccccc21
Response: 8.48

Prompt: API: value(readout=pIC50, system=human cloned dopamine D4.2 receptors (Homo sapiens, UniProt P21917, DEL265-296)) for record Clc1cccc(N2CCN(CCCN3CCc4ccccc43)CC2)c1Cl
Response: 8.74

Prompt: Recall the recorded pIC50 for O=C(CCCN1CCN(c2ccccc2Cl)CC1)N1CCc2ccccc21 with human cloned dopamine D4.2 receptors (Homo sapiens, UniProt P21917, DEL265-296) and state it.
Response: 9.04

Prompt: Query for human cloned dopamine D4.2 receptors (Homo sapiens, UniProt P21917, DEL265-296): what pIC50 does the record show for O=C(CCCN1CCN(c2ccccc2F)CC1)N1CCc2ccccc2C1 ?
Response: 8.05
